System: HCT-116
test-description: Cellular proliferation assay (Alamar blue), HCT-116
Assay type: cell-based
condition-summary: Homo sapiens, 10% FCS, 72 hours with compound, Alamar blue 4 h
measured-parameter: IC50 (µM)

Would you mind telling me what IC50 value was observed for O=C1NCCCOc2cccc(c2)-c2ccnc(n2)Nc2ccc(N3CCOCC3)c(c2)CN2CCC[C@@H]12 ? 5.37

1 = CN1CCNC(=O)CN2CCN(CC2)Cc2cccc(c2)Nc2nccc(n2)-c2ccc(cc2)C1
2 = O=C1NCCCOc2ccc(cc2)-c2ccnc(n2)Nc2ccc(N3CCOCC3)c(c2)CN2CCC1CC2
3 = CN(C)CCNCc1cc2cc(c1)Nc1nccc(n1)-c1cccc(c1)CNC(=O)[C@@H]1CCCN1C2
# sort list by recorded IC50, greatest to least Note for the reader: the ranking is given by listing the labels in the order requested. 1, 3, 2
(1: 5.25 µM, 3: 1.02 µM, 2: 0.309 µM)

###

Test system: A2780
test-description: Cellular proliferation assay (Alamar blue), A2780
Type: cell-based
condition-summary: Homo sapiens, 10% FCS, 72 hours with compound, Alamar blue 24 h, read-out: A2780 (cellular proliferation assay, Table 4) (converted)
Form field: IC50 (one value per entry).

Please review the entries below; each comes with its answer.
Would you mind telling me what IC50 value was observed for CC(C)Nc1cc2cc(c1)Nc1nccc(n1)-c1ccc(cc1)CN(C)CCCNC(=O)[C@@H]1CCCN1C2 [Compound 151] ? > 10 µM

Would you mind telling me what IC50 value was observed for COc1ccc2cc1CN(C)CCNC(=O)[C@@H]1CCCN1Cc1cc(C#N)cc(c1)Nc1nccc-2n1 [Compound 181] ? > 10 µM

Would you mind telling me what IC50 value was observed for CN1CCN(Cc2cc3cc(c2)Nc2nccc(n2)-c2cccc(c2)CNC(=O)[C@@H]2CCCN2C3)CC1 [Compound 28] ? 0.55 µM

Would you mind telling me what IC50 value was observed for COc1ccc2cc1CNCCNC(=O)[C@@H]1C[C@@H](O)CN1Cc1cc(ccc1N1CCOCC1)Nc1nccc-2n1 [Compound 177] ? > 10 µM

Would you mind telling me what IC50 value was observed for O=C1NCCCNCc2ccc(cc2)-c2ccnc(n2)Nc2ccc(N3CCOCC3)c(c2)CN2CCC1CC2 [Compound 69] ? > 10 µM

Continuing:
Would you mind telling me what IC50 value was observed for CN1CCCNC(=O)[C@H](CO)NCc2cc(Br)cc(c2)Nc2nccc(n2)-c2ccc(cc2)C1 [Compound 110] ? 5.5 µM

Would you mind telling me what IC50 value was observed for CC(C)(C)O[C@@H]1C[C@H]2C(=O)NCc3cccc(c3)-c3ccnc(n3)Nc3ccccc3CN2C1 [Compound 58] ? > 10 µM

Would you mind telling me what IC50 value was observed for O=C1CN2CCN(CC2)Cc2cc(ccc2N2CCOCC2)Nc2nccc(n2)-c2cccc(c2)OCCCN1 [Compound 103] ? > 10 µM

Would you mind telling me what IC50 value was observed for COc1ccc2cc1CN(C)CCNC(=O)CN1CCN(CC1)Cc1cc(cc(NC(C)C)c1)Nc1nccc-2n1 [Compound 142] ? > 10 µM

Would you mind telling me what IC50 value was observed for COc1ccc2cc1CN[C@@H](CO)C(=O)N(C)CCCN(C)c1ccc(cn1)-c1ccnc(n1)N2 [Compound 11] ? > 10 µM

Would you mind telling me what IC50 value was observed for COc1ccc2cc1CN(C)CCCNC(=O)[C@@H]1CCCN1Cc1cc(Br)cc(c1)Nc1nccc-2n1 [Compound 170] ? 4.17 µM

Attribution: patent US8609836B2
